The reported numbers originate from ChEMBL document CHEMBL4840359.

molecular target: Neuropeptide Y receptor type 4 (Homo sapiens, UniProt P50391); assay: Displacement of [3H]UR-KK200 from human neuropeptide Y Y4 receptor expressed in CHO-mtAEQ cells co-expressing Gqi5 assessed as fold change in affinity measured after 90 mins by scintillation counting analysis relative to Ac-Arg-Tyr-Arg-Leu-Arg-Tyr-NH2; assay type: cell-based; conditions: filed as agonist
Sequence (P50391 whole entry): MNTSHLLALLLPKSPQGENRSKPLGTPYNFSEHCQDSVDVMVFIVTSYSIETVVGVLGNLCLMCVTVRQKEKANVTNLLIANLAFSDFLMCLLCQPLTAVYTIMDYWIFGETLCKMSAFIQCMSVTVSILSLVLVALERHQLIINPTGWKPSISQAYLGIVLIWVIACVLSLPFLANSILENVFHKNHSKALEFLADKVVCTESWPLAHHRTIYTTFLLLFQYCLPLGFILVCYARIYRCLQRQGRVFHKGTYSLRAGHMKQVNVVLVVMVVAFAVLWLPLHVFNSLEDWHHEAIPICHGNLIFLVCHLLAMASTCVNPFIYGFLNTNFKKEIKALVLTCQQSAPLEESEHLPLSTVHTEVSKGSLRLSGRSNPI
Starred links: 1 amine or outer side, 2 acyl side, 3 side chain; linkers in the order of their positions; H or OH if unused. Residues, ends and D or L forms follow the SMILES beside them. Groups on a side chain read outwards from the residue. *: point of attachment. Suc = O=C(CCC(=O)[*:2])[*:1]; NH(CH2)4NH2 = NCCCCN*; CO = O=C([*:1])[*:2]; NH(CH2)3NH2 = NCCCN*
assay endpoint: fold change (FC)

Please review the following examples before continuing.
compound	assay endpoint	reported
N=C(N)NCCC[C@H](NC(=O)CCC(=O)O)C(=O)N[C@@H](Cc1ccc(O)cc1)C(=O)N[C@@H](CCCNC(=N)NC(=O)NCCCN)C(=O)N[C@@H](Cc1c[nH]c2ccccc12)C(=O)N[C@@H](CCCNC(=N)N)C(=O)N[C@@H](Cc1ccc(O)cc1)C(N)=O (Suc-RYR([CO-NH(CH2)3NH2])WRY-NH2)	fold change (FC)	-19
CC(C)C[C@H](NC(=O)[C@@H]1CCCNC(=N)NC(=O)NCCCCNC(=O)CCC(=O)N[C@@H](CCCNC(=N)N)C(=O)N[C@@H](Cc2c[nH]c3ccccc23)C(=O)N1)C(=O)N[C@@H](CCCNC(=N)N)C(=O)N[C@@H](Cc1ccc(O)cc1)C(N)=O	fold change (FC)	103
CC(C)C[C@H](NC(=O)[C@@H]1CCCNC(=N)NC(=O)NCCCCNC(=O)CCC(=O)N[C@@H](CCCNC(=N)N)C(=O)N1)C(=O)N[C@@H](CCCNC(=N)N)C(=O)N[C@@H](Cc1ccc(O)cc1)C(N)=O (HELM PEPTIDE1{R.[N=C(NCCC[C@H](N[*:1])C(=O)[*:2])N[*:3]].L.R.Y.[am]}|CHEM1{[O=C(CCC(=O)[*:1])NCCCCNC(=O)[*:2]]}$PEPTIDE1,CHEM1,1:R1-1:R1|PEPTIDE1,CHEM1,2:R3-1:R2$$$V2.0)	fold change (FC)	2.4
CC(C)C[C@H](NC(=O)[C@H](CCCNC(=N)NC(=O)NCCCN)NC(=O)[C@H](Cc1ccc(O)cc1)NC(=O)[C@H](CCCNC(=N)N)NC(=O)CCC(=O)O)C(=O)N[C@@H](CCCNC(=N)N)C(=O)N[C@@H](Cc1ccc(O)cc1)C(N)=O	fold change (FC)	5.2
CC(C)C[C@H](NC(=O)[C@H](CCCNC(=N)N)NC(=O)[C@H](Cc1ccc(O)cc1)NC(=O)[C@H](CCCNC(=N)N)NC(=O)CCC(=O)O)C(=O)N[C@@H](CCCNC(=N)NC(=O)NCCCN)C(=O)N[C@@H](Cc1ccc(O)cc1)C(N)=O	fold change (FC)	-16

I. CC(C)C[C@H](NC(=O)[C@H](CCCNC(=N)NC(=O)NCCCCN)NC(=O)[C@H](Cc1c[nH]c2ccccc12)NC(=O)[C@H](CCCNC(=N)N)NC(=O)CCC(=O)O)C(=O)N[C@@H](CCCNC(=N)N)C(=O)N[C@@H](Cc1ccc(O)cc1)C(N)=O
II. CC(C)C[C@H](NC(=O)[C@@H]1CCC(=O)NCC(=O)N[C@H](CCCNC(=N)N)C(=O)N[C@@H](CCCNC(=N)N)C(=O)N1)C(=O)N[C@@H](CCCNC(=N)N)C(=O)N[C@@H](Cc1ccc(O)cc1)C(N)=O
III. CC(C)C[C@H](NC(=O)[C@H](CCCNC(=N)NC(=O)NCCCCN)NC(=O)[C@H](CCCNC(=N)N)NC(=O)CCC(=O)O)C(=O)N[C@@H](CCCNC(=N)N)C(=O)N[C@@H](Cc1ccc(O)cc1)C(N)=O (Suc-RR([CO-NH(CH2)4NH2])LRY-NH2)
q: # sort list by recorded fold change (FC), greatest to least Answer format: the labels, ordered as requested.
a: I, III, II
(I: 1.6, III: -2.9, II: -8.8)

###

biological target: Neuropeptide Y receptor type 4 (Homo sapiens); test: Agonist activity at human neuropeptide Y Y4 receptor expressed in HEK293T-ARRB1 cells assessed as stimulation of beta-arrestin 1 recruitment by multimode plate reader; type: functional, cell-based; conditions: read-out: EC50
pEC50: −log10 of the molar value. Residues, ends and D or L forms follow the SMILES beside them.
assay endpoint: pEC50

compound	pEC50
N=C(N)NCCC[C@@H]1NC(=O)CCC(=O)NCCCNC(=O)NC(=N)NCCC[C@@H](C(=O)N[C@@H](Cc2c[nH]c3ccccc23)C(=O)N[C@@H](CCCNC(=N)N)C(=O)N[C@@H](Cc2ccc(O)cc2)C(N)=O)NC(=O)[C@H](Cc2ccc(O)cc2)NC1=O (HELM PEPTIDE1{R.Y.[N=C(NCCC[C@H](N[*:1])C(=O)[*:2])N[*:3]].W.R.Y.[am]}|CHEM1{[O=C(CCC(=O)[*:1])NCCCNC(=O)[*:2]]}$PEPTIDE1,CHEM1,1:R1-1:R1|PEPTIDE1,CHEM1,3:R3-1:R2$$$V2.0)	6.28

I. CC(C)C[C@H](NC(=O)[C@H](CCCNC(=N)NC(=O)NCCCCN)NC(=O)[C@H](Cc1c[nH]c2ccccc12)NC(=O)[C@H](CCCNC(=N)N)NC(=O)CCC(=O)O)C(=O)N[C@@H](CCCNC(=N)N)C(=O)N[C@@H](Cc1ccc(O)cc1)C(N)=O
II. CC(C)C[C@H](NC(=O)[C@@H]1CCCNC(=N)NC(=O)NCCCCNC(=O)CCC(=O)N[C@@H](CCCNC(=N)N)C(=O)N[C@@H](Cc2ccc(O)cc2)C(=O)N1)C(=O)N[C@@H](CCCNC(=N)N)C(=O)N[C@@H](Cc1ccc(O)cc1)C(N)=O
q: // max by pEC50 over [ I , II ] Answer by stating the label of the chosen item.
a: II
(II: 8.44, I: 6.92)

###

molecular target: Neuropeptide Y receptor type 4 (Homo sapiens, UniProt P50391); experiment: Agonist activity at human neuropeptide Y Y4 receptor expressed in HEK293T-ARRB2 cells assessed as stimulation of beta-arrestin 2 recruitment by multimode plate reader; format: functional, cell-based
pEC50: −log10 of the molar value. Starred links: 1 amine or outer side, 2 acyl side, 3 side chain; linkers in the order of their positions; H or OH if unused. Residues, ends and D or L forms follow the SMILES beside them. Groups on a side chain read outwards from the residue. *: point of attachment. Suc = O=C(CCC(=O)[*:2])[*:1]; NH(CH2)4NH2 = NCCCCN*; CO = O=C([*:1])[*:2]
assay endpoint: pEC50

compound	target system	assay endpoint	reported
CC(C)C[C@H](NC(=O)[C@@H]1CCCNC(=N)NC(=O)NCCCCNC(=O)CCC(=O)N[C@@H](CCCNC(=N)N)C(=O)N[C@@H](Cc2ccc(O)cc2)C(=O)N1)C(=O)N[C@@H](CCCNC(=N)N)C(=O)N[C@@H](Cc1ccc(O)cc1)C(N)=O	Neuropeptide Y receptor type 4 (Homo sapiens, UniProt P50391)	pEC50	8.80

A. CC(C)C[C@H](NC(=O)[C@@H]1CCCNC(=N)NC(=O)NCCCCNC(=O)CCC(=O)N[C@@H](CCCNC(=N)N)C(=O)N[C@@H](Cc2c[nH]c3ccccc23)C(=O)N1)C(=O)N[C@@H](CCCNC(=N)N)C(=O)N[C@@H](Cc1ccc(O)cc1)C(N)=O
B. CC(C)C[C@H](NC(=O)[C@H](CCCNC(=N)NC(=O)NCCCCN)NC(=O)[C@H](CCCNC(=N)N)NC(=O)CCC(=O)O)C(=O)N[C@@H](CCCNC(=N)N)C(=O)N[C@@H](Cc1ccc(O)cc1)C(N)=O (Suc-RR([CO-NH(CH2)4NH2])LRY-NH2)
C. CC(C)C[C@H](NC(=O)[C@H](CCCNC(=N)NC(=O)NCCCCN)NC(=O)[C@H](Cc1c[nH]c2ccccc12)NC(=O)[C@H](CCCNC(=N)N)NC(=O)CCC(=O)O)C(=O)N[C@@H](CCCNC(=N)N)C(=O)N[C@@H](Cc1ccc(O)cc1)C(N)=O
q: # rank_down: sort by pEC50, max first Write the labels out in the order the request specifies.
a: A, C, B

###

target: Neuropeptide Y receptor type 4 (Homo sapiens); test: Agonist activity at human neuropeptide Y Y4 receptor expressed in HEK293T-ARRB1 cells assessed as stimulation of beta-arrestin 1 recruitment by multimode plate reader; type: functional, cell-based; details: read-out: EC50
pEC50: −log10 of the molar value. Starred links: 1 amine or outer side, 2 acyl side, 3 side chain; linkers in the order of their positions; H or OH if unused. Residues, ends and D or L forms follow the SMILES beside them. Groups on a side chain read outwards from the residue. *: point of attachment. Suc = O=C(CCC(=O)[*:2])[*:1]; NH(CH2)4NH2 = NCCCCN*; CO = O=C([*:1])[*:2]
assay endpoint: pEC50

For orientation, consider the following solved cases.
compound	target system	assay endpoint	reported
CC(C)C[C@H](NC(=O)[C@@H]1CCCNC(=N)NC(=O)NCCCNC(=O)CCC(=O)N[C@@H](CCCNC(=N)N)C(=O)N[C@@H](Cc2ccc(O)cc2)C(=O)N1)C(=O)N[C@@H](CCCNC(=N)N)C(=O)N[C@@H](Cc1ccc(O)cc1)C(N)=O	Neuropeptide Y receptor type 4 (Homo sapiens)	pEC50	8.46
CC(C)C[C@H](NC(=O)[C@@H]1CCCNC(=N)NC(=O)NCCCCNC(=O)CCC(=O)N[C@@H](CCCNC(=N)N)C(=O)N1)C(=O)N[C@@H](CCCNC(=N)N)C(=O)N[C@@H](Cc1ccc(O)cc1)C(N)=O (HELM PEPTIDE1{R.[N=C(NCCC[C@H](N[*:1])C(=O)[*:2])N[*:3]].L.R.Y.[am]}|CHEM1{[O=C(CCC(=O)[*:1])NCCCCNC(=O)[*:2]]}$PEPTIDE1,CHEM1,1:R1-1:R1|PEPTIDE1,CHEM1,2:R3-1:R2$$$V2.0)	Neuropeptide Y receptor type 4 (Homo sapiens)	pEC50	6.74
CC(C)C[C@H](NC(=O)[C@@H]1CCCNC(=N)NC(=O)NCCCCNC(=O)CCC(=O)N[C@@H](CCCCN)C(=O)N[C@@H](Cc2ccc(O)cc2)C(=O)N1)C(=O)N[C@@H](CCCNC(=N)N)C(=O)N[C@@H](Cc1ccc(O)cc1)C(N)=O (HELM PEPTIDE1{K.Y.[N=C(NCCC[C@H](N[*:1])C(=O)[*:2])N[*:3]].L.R.Y.[am]}|CHEM1{[O=C(CCC(=O)[*:1])NCCCCNC(=O)[*:2]]}$PEPTIDE1,CHEM1,1:R1-1:R1|PEPTIDE1,CHEM1,3:R3-1:R2$$$V2.0)	Neuropeptide Y receptor type 4 (Homo sapiens)	pEC50	7.85

1. CC(C)C[C@H](NC(=O)[C@H](CCCNC(=N)NC(=O)NCCCCN)NC(=O)[C@H](CCCNC(=N)N)NC(=O)CCC(=O)O)C(=O)N[C@@H](CCCNC(=N)N)C(=O)N[C@@H](Cc1ccc(O)cc1)C(N)=O (Suc-RR([CO-NH(CH2)4NH2])LRY-NH2)
2. CC(C)C[C@H](NC(=O)[C@H](CCCNC(=N)NC(=O)NCCCCN)NC(=O)[C@H](Cc1ccc(O)cc1)NC(=O)[C@H](CCCCN)NC(=O)CCC(=O)O)C(=O)N[C@@H](CCCNC(=N)N)C(=O)N[C@@H](Cc1ccc(O)cc1)C(N)=O (Suc-KYR([CO-NH(CH2)4NH2])LRY-NH2)
3. CC(C)C[C@H](NC(=O)[C@H](CCCNC(=N)NC(=O)NCCCN)NC(=O)[C@H](Cc1ccc(O)cc1)NC(=O)[C@H](CCCNC(=N)N)NC(=O)CCC(=O)O)C(=O)N[C@@H](CCCNC(=N)N)C(=O)N[C@@H](Cc1ccc(O)cc1)C(N)=O
4. CC(C)C[C@H](NC(=O)[C@H](CCCNC(=N)NC(=O)NCCCCN)NC(=O)[C@H](Cc1ccc(O)cc1)NC(=O)[C@H](CCCNC(=N)N)NC(=O)CCC(=O)O)C(=O)N[C@@H](CCCNC(=N)N)C(=O)N[C@@H](Cc1ccc(O)cc1)C(N)=O
q: Sort by pEC50, descending. Dear reader, please state the labels in the requested order.
a: 3, 4, 2, 1
(3: 7.30, 4: 6.80, 2: 6.57, 1: 6.00)
